- System: MDA-MB-468 cells
- Test details: Tumor cell proliferation, CellTiter Glo, MDA-MB-468
- Format: cell-based, human
- Measurement setup: MDA-MB-468, 48-96 h; read-out: Inhibition effects on tumor cell proliferation (IC50)
Attribute measured: IC50
Give the value; after it, write the unit.

Q: I am curious: what IC50 value has been reported for COc1cc2cc(c1Cl)N(C)C(=O)C[C@H](OC(=O)[C@H](C)N(C)C(=O)CCS)[C@]1(C)O[C@H]1[C@H](C)[C@@H]1C[C@@](O)(NC(=O)O1)[C@H](OC)/C=C/C=C(\C)C2 ?
A: 4.22 nM

====

- System: SK-BR-3 cells
- Test details: Tumor cell proliferation, CellTiter Glo, SK-BR-3
- Assay type: cell-based, human
- Measurement setup: SK-BR-3, 48-96 h; read-out: Inhibition effects on tumor cell proliferation (IC50)
Attribute measured: IC50 (nM)
# number only, unit nM dropped from output

Q: Item COc1cc2cc(c1Cl)N(C)C(=O)C[C@H](OC(=O)[C@H](C)N(C)C(=O)CCS)[C@]1(C)O[C@H]1[C@H](C)[C@@H]1C[C@@](O)(NC(=O)O1)[C@H](OC)/C=C/C=C(\C)C2 with SK-BR-3 cells - IC50?
A: 1.92

====

- System: SK-OV-3 cells
- Test details: Tumor cell proliferation, CellTiter Glo, SK-OV-3
- Format: cell-based, human
- Measurement setup: SK-OV-3, 48-96 h; read-out: Inhibition effects on tumor cell proliferation (IC50)
Attribute measured: pIC50
Scale note: pIC50 = -log10(concentration in M).

Q: I am curious: what pIC50 value has been reported for COc1cc2cc(c1Cl)N(C)C(=O)C[C@H](OC(=O)[C@H](C)N(C)C(=O)CCS)[C@]1(C)O[C@H]1[C@H](C)[C@@H]1C[C@@](O)(NC(=O)O1)[C@H](OC)/C=C/C=C(\C)C2 [DM1] ?
A: 8.80

Data provenance is patent US11911434B2.
